Entries and their EC50 for [Ca2+] values follow.
Biological target: T1, FPR1 (UniProt P21462 1-350, limits assumed)
T1 sequence (looked up): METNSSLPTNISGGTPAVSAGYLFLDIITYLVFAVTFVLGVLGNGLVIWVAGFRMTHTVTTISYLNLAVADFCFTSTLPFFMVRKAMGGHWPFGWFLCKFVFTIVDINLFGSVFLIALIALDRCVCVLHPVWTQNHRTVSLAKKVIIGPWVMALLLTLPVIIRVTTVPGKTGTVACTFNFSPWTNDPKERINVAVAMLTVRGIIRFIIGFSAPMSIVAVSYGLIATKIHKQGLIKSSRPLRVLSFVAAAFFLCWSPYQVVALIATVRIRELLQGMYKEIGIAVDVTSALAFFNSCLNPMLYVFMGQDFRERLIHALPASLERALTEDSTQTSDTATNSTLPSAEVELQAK
Experiment: cell-based or functional assay

binder	EC50 for [Ca2+]
RMRYWYM (HELM PEPTIDE1{[CCCC(=O)[*:2]].R.M.R.Y.W.Y.[dM].[am]}$$$$V2.0; SMILES CCCC(=O)N[C@@H](CCCNC(=N)N)C(=O)N[C@@H](CCSC)C(=O)N[C@@H](CCCNC(=N)N)C(=O)N[C@@H](Cc1ccc(O)cc1)C(=O)N[C@@H](Cc1c[nH]c2ccccc12)C(=O)N[C@@H](Cc1ccc(O)cc1)C(=O)N[C@H](CCSC)C(N)=O) [peptide of SEQ ID NO 83]	> 10 µM

API: the following record is the query input.
Data request: I am curious: what EC50 for [Ca2+] value has been reported for MKYKVM (HELM PEPTIDE1{M.K.Y.K.V.[dM].[am]}$$$$V2.0; N-terminus assumed; SMILES CSCC[C@H](N)C(=O)N[C@@H](CCCCN)C(=O)N[C@@H](Cc1ccc(O)cc1)C(=O)N[C@@H](CCCCN)C(=O)N[C@H](C(=O)N[C@H](CCSC)C(N)=O)C(C)C) [peptide of SEQ ID NO 17] ?
Data returned: > 10 µM

FYI, the data here is from patent US20250361268A1.
